- METHOD: Pharmacokinetic analysis of SYN120 tablets, multiple dose once daily (Example 9)
- Format: in vivo, human
- CONDITIONS: both sexes, human, plasma, oral; Day 14, 100 mg QD; arithmetic mean
READOUT LABEL: half-life (h)
# value in h; strip the unit string

Would you kindly share the measured half-life for NC(=O)NC[C@@H]1CCCc2cc(S(=O)(=O)c3cccc(F)c3)ccc21 [SYN120] ?
15.4

###

- METHOD: Pharmacokinetic analysis of SYN120 tablets, multiple dose once daily (Example 9)
- Type: in vivo, human
- CONDITIONS: both sexes, human, plasma, oral, 100 mg, Day 14, 100 mg QD; geometric mean; read-out: Cmin
READOUT LABEL: concentration at 14 day (ng/mL)
# value in ng/mL; strip the unit string

Would you kindly share the measured concentration at 14 day for NC(=O)NC[C@@H]1CCCc2cc(S(=O)(=O)c3cccc(F)c3)ccc21 [SYN120] ?
201

###

- METHOD: Pharmacokinetic analysis of SYN120 tablets, multiple dose once daily (Example 9)
- Type: in vivo, human
- CONDITIONS: both sexes, human, plasma, oral, 600 mg, Day 1, 600 mg QD; geometric mean
READOUT LABEL: Cmax

Would you kindly share the measured Cmax for NC(=O)NC[C@@H]1CCCc2cc(S(=O)(=O)c3cccc(F)c3)ccc21 [SYN120] ?
5180 ng/mL

###

- METHOD: Pharmacokinetic analysis of SYN120 tablets, multiple dose once daily (Example 9)
- Type: in vivo, human
- CONDITIONS: both sexes, human, plasma, oral, 100 mg, Day 14, 100 mg QD; geometric mean; read-out: AUC0-last
- Experimental: PK analysis in a multiple dose study was performed on 28 subjects (10 males and 18 females) on day 1 and on 27 subjects (10 males and 17 females) on day 14 who received SYN120 oral tablets. The dosing interval was once daily, approximately 40 minutes after a standard breakfast, for up to 21 days. The subjects were administered the same dose of SYN120 daily at one of the following doses: 100 mg; 300 mg; and 600 mg. […]
READOUT LABEL: AUC(0-t) (µg·h/mL)
# value in µg·h/mL; strip the unit string

Would you kindly share the measured AUC(0-t) for NC(=O)NC[C@@H]1CCCc2cc(S(=O)(=O)c3cccc(F)c3)ccc21 [SYN120] ?
19.2

###

- METHOD: Pharmacokinetic analysis of SYN120 tablets, single oral dose (Example 8)
- Assay type: in vivo, human
- CONDITIONS: male, human, plasma; single oral dose 100 mg (males), Cohort D; geometric mean
READOUT LABEL: Cmax (ng/mL)
# value in ng/mL; strip the unit string

Would you kindly share the measured Cmax for NC(=O)NC[C@@H]1CCCc2cc(S(=O)(=O)c3cccc(F)c3)ccc21 [SYN120] ?
604

###

- METHOD: Pharmacokinetic analysis of SYN120 tablets, single oral dose (Example 8)
- Assay type: in vivo, human
- CONDITIONS: human, plasma, po, 2 mg, single oral dose 2 mg, Cohort A; geometric mean; read-out: AUC0-t
READOUT LABEL: AUC(0-t) (ng·h/mL)
# value in ng·h/mL; strip the unit string

Would you kindly share the measured AUC(0-t) for NC(=O)NC[C@@H]1CCCc2cc(S(=O)(=O)c3cccc(F)c3)ccc21 [SYN120] ?
139

###

- METHOD: Pharmacokinetic analysis of SYN120 tablets, single oral dose (Example 8)
- Assay type: in vivo, human
- CONDITIONS: male, human, plasma, po, 100 mg, single oral dose 100 mg (males), Cohort D; geometric mean; read-out: AUC0-24
READOUT LABEL: AUC(0-t) (µg·h/mL)
# value in µg·h/mL; strip the unit string

Would you kindly share the measured AUC(0-t) for NC(=O)NC[C@@H]1CCCc2cc(S(=O)(=O)c3cccc(F)c3)ccc21 [SYN120] ?
5.87

###

- METHOD: Pharmacokinetic analysis of SYN120 tablets, multiple dose once daily (Example 9)
- Assay type: in vivo, human
- CONDITIONS: both sexes, human, plasma, oral, 300 mg, Day 14, 300 mg QD; geometric mean
READOUT LABEL: Cmax (ng/mL)
# value in ng/mL; strip the unit string

Would you kindly share the measured Cmax for NC(=O)NC[C@@H]1CCCc2cc(S(=O)(=O)c3cccc(F)c3)ccc21 [SYN120] ?
3470

###

- METHOD: Pharmacokinetic analysis of SYN120 tablets, multiple dose once daily (Example 9)
- Assay type: in vivo, human
- CONDITIONS: Day 14, 300 mg QD; median
READOUT LABEL: Tlast (h)
# value in h; strip the unit string

Would you kindly share the measured Tlast for NC(=O)NC[C@@H]1CCCc2cc(S(=O)(=O)c3cccc(F)c3)ccc21 [SYN120] ?
168

###

- METHOD: Pharmacokinetic analysis of SYN120 tablets, single oral dose (Example 8)
- Format: in vivo, human
- CONDITIONS: human, plasma; single oral dose 10 mg, Cohort B; arithmetic mean ±SD; read-out: t1/2 (converted)
- Protocol: Pharmacokinetic (PK) analysis was performed on 42 subjects (36 males; 6 females) who received SYN120 oral tablets. In this study, subjects received a single oral dose of SYN120 at one of the following doses: 2 mg; 10 mg; 30 mg; 100 mg; 300 mg; and 600 mg. The SYN120 oral tablets used in this study were formulated for immediate release at tablet strengths of 2 mg, 10 mg, and 50 mg. […]
READOUT LABEL: half-life
Note: state the figure and append the unit.

Would you kindly share the measured half-life for NC(=O)NC[C@@H]1CCCc2cc(S(=O)(=O)c3cccc(F)c3)ccc21 [SYN120] ?
8.45 h

###

- METHOD: Pharmacokinetic analysis of SYN120 tablets, multiple dose once daily (Example 9)
- Format: in vivo, human
- CONDITIONS: both sexes, human, plasma, oral, 600 mg, Day 1, 600 mg QD; median; read-out: Tmax
READOUT LABEL: Tmax (h)
# value in h; strip the unit string

Would you kindly share the measured Tmax for NC(=O)NC[C@@H]1CCCc2cc(S(=O)(=O)c3cccc(F)c3)ccc21 [SYN120] ?
4

###

- METHOD: Pharmacokinetic analysis of SYN120 tablets, single oral dose (Example 8)
- Format: in vivo, human
- CONDITIONS: male, human, plasma; single oral dose 100 mg (males), Cohort D; median; read-out: Tmax
READOUT LABEL: Tmax (h)
# value in h; strip the unit string

Would you kindly share the measured Tmax for NC(=O)NC[C@@H]1CCCc2cc(S(=O)(=O)c3cccc(F)c3)ccc21 [SYN120] ?
4

###

- METHOD: Pharmacokinetic analysis of SYN120 tablets, single oral dose (Example 8)
- Type: in vivo, human
- CONDITIONS: male, human, plasma, po, 100 mg, single oral dose 100 mg (males), Cohort D; geometric mean; read-out: AUC0-t
READOUT LABEL: AUC(0-t) (ng·h/mL)
# value in ng·h/mL; strip the unit string

Would you kindly share the measured AUC(0-t) for NC(=O)NC[C@@H]1CCCc2cc(S(=O)(=O)c3cccc(F)c3)ccc21 [SYN120] ?
7010

###

- METHOD: Pharmacokinetic analysis of SYN120 tablets, single oral dose (Example 8)
- Assay type: in vivo, human
- CONDITIONS: male, human, plasma; single oral dose 100 mg (males), Cohort D; geometric mean
READOUT LABEL: AUC(0-inf) (ng·h/mL)
# value in ng·h/mL; strip the unit string

Would you kindly share the measured AUC(0-inf) for NC(=O)NC[C@@H]1CCCc2cc(S(=O)(=O)c3cccc(F)c3)ccc21 [SYN120] ?
7060

###

- METHOD: Pharmacokinetic analysis of SYN120 tablets, single oral dose (Example 8)
- Type: in vivo, human
- CONDITIONS: human, plasma; single oral dose 600 mg, Cohort G; arithmetic mean ±SD; read-out: t1/2 (converted)
READOUT LABEL: half-life
Note: state the figure and append the unit.

Would you kindly share the measured half-life for NC(=O)NC[C@@H]1CCCc2cc(S(=O)(=O)c3cccc(F)c3)ccc21 [SYN120] ?
12 h

###

- METHOD: Pharmacokinetic analysis of SYN120 tablets, multiple dose once daily (Example 9)
- Assay type: in vivo, human
- CONDITIONS: both sexes, human, plasma, oral, 300 mg, Day 1, 300 mg QD; median; read-out: Tmax
READOUT LABEL: Tmax (h)
# value in h; strip the unit string

Would you kindly share the measured Tmax for NC(=O)NC[C@@H]1CCCc2cc(S(=O)(=O)c3cccc(F)c3)ccc21 [SYN120] ?
4
